# TGT: CDK4 (Homo sapiens, UniProt P11802+Q16531)
# Sequence (P11802 whole entry): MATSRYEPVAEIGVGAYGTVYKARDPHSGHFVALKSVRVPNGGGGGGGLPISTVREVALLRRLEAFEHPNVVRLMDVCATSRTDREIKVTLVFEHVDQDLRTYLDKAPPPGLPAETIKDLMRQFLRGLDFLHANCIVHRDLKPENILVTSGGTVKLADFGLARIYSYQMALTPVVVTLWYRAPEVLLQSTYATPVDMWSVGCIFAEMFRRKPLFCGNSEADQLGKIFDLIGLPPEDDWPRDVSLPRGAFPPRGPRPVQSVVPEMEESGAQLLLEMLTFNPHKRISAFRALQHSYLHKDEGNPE
# Sequence (P24385 whole entry partner): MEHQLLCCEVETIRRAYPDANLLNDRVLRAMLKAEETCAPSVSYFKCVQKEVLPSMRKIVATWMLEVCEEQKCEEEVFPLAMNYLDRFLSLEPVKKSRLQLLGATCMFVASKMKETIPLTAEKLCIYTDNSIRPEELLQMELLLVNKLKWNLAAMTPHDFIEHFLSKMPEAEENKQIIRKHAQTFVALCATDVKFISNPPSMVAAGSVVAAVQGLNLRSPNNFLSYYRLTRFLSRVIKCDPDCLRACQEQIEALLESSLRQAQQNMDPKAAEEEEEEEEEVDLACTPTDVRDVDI
# Sequence (Q16531 2-1140 limits assumed): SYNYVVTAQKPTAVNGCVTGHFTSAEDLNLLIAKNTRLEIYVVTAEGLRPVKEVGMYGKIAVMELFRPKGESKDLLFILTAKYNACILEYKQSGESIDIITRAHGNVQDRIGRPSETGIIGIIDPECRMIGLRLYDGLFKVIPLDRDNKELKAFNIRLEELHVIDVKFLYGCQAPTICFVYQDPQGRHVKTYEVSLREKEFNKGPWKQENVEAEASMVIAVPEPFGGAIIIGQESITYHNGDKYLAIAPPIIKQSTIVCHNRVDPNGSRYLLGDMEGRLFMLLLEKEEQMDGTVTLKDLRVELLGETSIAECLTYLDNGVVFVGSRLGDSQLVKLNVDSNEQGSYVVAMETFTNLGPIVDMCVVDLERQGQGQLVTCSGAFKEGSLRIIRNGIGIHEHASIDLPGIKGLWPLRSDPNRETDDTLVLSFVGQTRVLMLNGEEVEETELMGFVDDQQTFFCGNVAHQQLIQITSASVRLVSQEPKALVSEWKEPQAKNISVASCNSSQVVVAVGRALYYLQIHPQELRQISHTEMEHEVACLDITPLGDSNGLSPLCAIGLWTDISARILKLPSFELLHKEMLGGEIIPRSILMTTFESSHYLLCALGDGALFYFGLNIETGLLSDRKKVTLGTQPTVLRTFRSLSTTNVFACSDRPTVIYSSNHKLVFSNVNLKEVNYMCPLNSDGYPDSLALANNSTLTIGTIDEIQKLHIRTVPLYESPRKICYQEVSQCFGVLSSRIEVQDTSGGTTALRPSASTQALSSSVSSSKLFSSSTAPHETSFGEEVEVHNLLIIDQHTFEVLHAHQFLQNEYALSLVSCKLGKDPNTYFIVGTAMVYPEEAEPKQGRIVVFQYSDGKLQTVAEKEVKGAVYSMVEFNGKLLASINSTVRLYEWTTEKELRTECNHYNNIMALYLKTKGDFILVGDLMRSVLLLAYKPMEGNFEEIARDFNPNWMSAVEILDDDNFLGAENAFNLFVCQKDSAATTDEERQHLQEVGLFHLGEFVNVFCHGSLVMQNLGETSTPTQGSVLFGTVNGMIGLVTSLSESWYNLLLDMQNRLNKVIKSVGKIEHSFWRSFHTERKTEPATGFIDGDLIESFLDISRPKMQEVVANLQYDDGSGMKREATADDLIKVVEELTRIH
# ASSAY_NOTES: HiBiT detection of HiBiT-tagged CDK4 protein level in MCF7 cells, 16 hours (Table 8)
# Format: cell-based
# Parameters: expressed in transfected cells; host or cells: MCF7
# PARTICULARS: 100 nM, MCF7 cells stably expressing HiBiT tagged target proteins, read-out: % CDK4 Relative Level (100 nM)
READOUT_LABEL: activity at 0.1 µM

Look up activity at 0.1 µM: CNc1ccc(C(=O)Nc2ccc(N(C)C)nn2)c(NCCCCCCNC(=O)CN2CCN(c3ccc(Nc4ncc5cc(C(=O)N(C)C)n(C6CCCC6)c5n4)nc3)CC2)n1
55 to 85%

Entry CC(=O)c1c(C)c2cnc(Nc3ccc(N4CCN(C5CCN(C(=O)C67CC(Nc8nc(NC(C)C)ccc8C(=O)Nc8cn(C)c(C9CC9)n8)(C6)C7)C5)CC4)cn3)nc2n(C2CCCC2)c1=O (centres unmarked) has what activity at 0.1 µM?
55 to 85%

Please give the measured activity at 0.1 µM for this compound: CNc1ccc(C(=O)Nc2ccc(N(C)C)nn2)c(NCCOCCOCCC(=O)N2CCN(Cc3ccc(Nc4ncc(F)c(-c5cc(F)c6nc(C)n(C(C)C)c6c5)n4)nc3)CC2)n1
> 85%

Please report the recorded activity at 0.1 µM for CC(=O)c1c(C)c2cnc(Nc3ccc(CN4CCC(N(C)C(=O)C5CC6(CC(Nc7nc(NC(C)C)ccc7C(=O)Nc7ccc(N(C)C)nn7)C6)C5)CC4)cn3)nc2n(C2CCCC2)c1=O (centres unmarked) .
55 to 85%

Any idea what activity at 0.1 µM was measured for CC(=O)c1c(C)c2cnc(Nc3ccc(N4CCN(C5CCN(C(=O)C67CC(Nc8nc(C)ccc8C(=O)Nc8ccc(N(C)C)nn8)(C6)C7)C5)CC4)cn3)nc2n(C2CCCC2)c1=O (centres unmarked) ?
55 to 85%

---

Overview of recorded activity at 0.01 µM for various molecules
# TGT: CDK4 (Homo sapiens, UniProt P11802+Q16531)
# ASSAY_NOTES: HiBiT detection of HiBiT-tagged CDK4 protein level in MCF7 cells, 16 hours (Table 8)
# Format: cell-based
# Parameters: expressed in transfected cells; host or cells: MCF7
# PARTICULARS: 10 nM, MCF7 cells stably expressing HiBiT tagged target proteins, read-out: % CDK4 Relative Level (10 nM)
# Procedure: HiBiT detection system quantitatively measures total amounts of HiBiT-tagged proteins using a luminescent based method. MCF7 cells stably expressing HiBiT tagged target proteins were treated with heterobifunctional compounds at indicated concentrations for 16 hours, then lysed with Nano-Glo HiBiT Lytic detection reagents.

Fill in: activity at 0.01 µM of CNc1ccc(C(=O)Nc2ccc(N(C)C)nn2)c(NCCCC(=O)NC2CCC3(CC2)CC(Nc2ncc4ccc(=O)n(C5CCCC5)c4n2)C3)n1 (centres unmarked) is ___
> 85%

New cases:
I am curious: what activity at 0.01 µM value has been reported for CC(=O)c1c(C)c2cnc(Nc3ccc(N4CCN(CCC(=O)N5CC6(CC(Nc7nc(NC(C)C)ccc7C(=O)Nc7cc(C)n(C)n7)C6)C5)CC4)cn3)nc2n(C2CCCC2)c1=O ?
55 to 85%

Which activity at 0.01 µM value belongs to CNc1ccc(C(=O)Nc2ccc(N(C)C)nn2)c(NCCCCCCNC(=O)CN2CCN(c3ccc(Nc4ncc5cc(C(=O)N(C)C)n(C6CCCC6)c5n4)nc3)CC2)n1 ?
55 to 85%

Need activity at 0.01 µM of COC1(C(=O)N2CCC(N3CCN(c4ccc(Nc5ncc6c(C)c(C(C)=O)c(=O)n(C7CCCC7)c6n5)nc4)CC3)C2)CCC(Nc2nc(NC(C)C)ccc2C(=O)Nc2ccc(N(C)C)nn2)CC1 (centres unmarked) , thanks.
> 85%

What does the record list as activity at 0.01 µM for CNc1ccc(C(=O)Nc2ccc(N(C)C)nn2)c(NCCCCCCCNC(=O)CN2CCN(c3ccc(Nc4ncc5cc(C(=O)N(C)C)n(C6CCCC6)c5n4)nc3)CC2)n1 ?
55 to 85%

---

# TGT: CDK4 (Homo sapiens, UniProt P11802+Q16531)
# ASSAY_NOTES: HiBiT detection of HiBiT-tagged CDK4 protein level in MCF7 cells, 16 hours (Table 8)
# Type: cell-based
# Parameters: expressed in transfected cells; host or cells: MCF7
# PARTICULARS: 100 nM, MCF7 cells stably expressing HiBiT tagged target proteins, read-out: % CDK4 Relative Level (100 nM)
Consider the following molecules and their measured activity at 0.1 µM readings.

Solved entries:
Item: CNc1ccc(C(=O)Nc2ccc(N(C)C)nn2)c(NCCCCCCC(=O)NC2CCC3(CC2)CC(Nc2ncc4ccc(=O)n(C5CCCC5)c4n2)C3)n1 (centres unmarked) Test system: CDK4 (Homo sapiens, UniProt P11802+Q16531) Read-out: activity at 0.1 µM Value: ?
> 85%

GET /values?readout=activity at 0.1 µM&system=CDK4 (Homo sapiens, UniProt P11802+Q16531)&item= CNc1ccc(C(=O)Nc2ccc(N(C)C)nn2)c(NCCC(=O)NC2CCC3(CC2)CC(Nc2ncc4ccc(=O)n(C5CCCC5)c4n2)C3)n1 (centres unmarked)
> 85%

activity at 0.1 µM of CC(=O)c1c(C)c2cnc(Nc3ccc(CN4CCN(CC(=O)N5CC6(CC(Nc7nc(NC(C)C)ccc7C(=O)Nc7ccc(N(C)C)nn7)C6)C5)CC4)cn3)nc2n(C2CCCC2)c1=O on CDK4 (Homo sapiens, UniProt P11802+Q16531)?
55 to 85%

What reported activity at 0.1 µM corresponds to CNc1ccc(C(=O)Nc2ccc(N(C)C)nn2)c(NCCCCCC(=O)NC2CCC3(CC2)CC(Nc2ncc4ccc(=O)n(C5CCCC5)c4n2)C3)n1 (centres unmarked) on CDK4 (Homo sapiens, UniProt P11802+Q16531)?
> 85%

Query for CDK4 (Homo sapiens, UniProt P11802+Q16531): what activity at 0.1 µM does the record show for CNc1ccc(C(=O)Nc2ccc(N(C)C)nn2)c(NCCCCCCNC(=O)CN2CCN(Cc3ccc(Nc4ncc(F)c(-c5cc(F)c6nc(C)n(C(C)C)c6c5)n4)nc3)CC2)n1 ?
> 85%

Record CC(=O)c1c(C)c2cnc(Nc3ccc(N4CCN(C5CCN(C(=O)C67CC(Nc8nc(NC(C)C)ccc8C(=O)Nc8cc9n(n8)CCC9)(C6)C7)C5)CC4)cn3)nc2n(C2CCCC2)c1=O (centres unmarked) : what is its activity at 0.1 µM with CDK4 (Homo sapiens, UniProt P11802+Q16531)?
55 to 85%

I'm curious: which activity at 0.1 µM was measured for CCc1ccc(C(=O)Nc2ccc(N(C)C)nn2)c(N[C@H]2CC[C@H](C(=O)N3CCC(N4CCN(c5ccc(Nc6ncc7c(C)c(C(C)=O)c(=O)n(C8CCCC8)c7n6)nc5)CC4)C3)CC2)n1 (some centres unmarked) tested on CDK4 (Homo sapiens, UniProt P11802+Q16531)?
> 85%

Recorded activity at 0.1 µM for CNc1ccc(C(=O)Nc2ccc(N(C)C)nn2)c(NCCCCNC(=O)CN2CCN(c3ccc(Nc4ncc5cc6n(c5n4)C4(CCCCC4)CNC6=O)nc3)CC2)n1 with CDK4 (Homo sapiens, UniProt P11802+Q16531), please?
55 to 85%

More entries:
CDK4 (Homo sapiens, UniProt P11802+Q16531) / activity at 0.1 µM / CNc1ccc(C(=O)Nc2ccc(N(C)C)nn2)c(NCCCCCC(=O)N2CCN(c3ccc(Nc4ncc5cc6n(c5n4)C4(CCCCC4)CNC6=O)nc3)CC2)n1 : value?
55 to 85%

Tell me reported activity at 0.1 µM for CNc1ccc(C(=O)Nc2ccc(N(C)C)nn2)c(NCCNC(=O)CN2CCN(Cc3ccc(Nc4ncc(F)c(-c5cc(F)c6nc(C)n(C(C)C)c6c5)n4)nc3)CC2)n1 , tested with CDK4 (Homo sapiens, UniProt P11802+Q16531).
55 to 85%

Checklist item: activity at 0.1 µM tested on CDK4 (Homo sapiens, UniProt P11802+Q16531), entry CNc1ccc(C(=O)Nc2ccc(N(C)C)nn2)c(NCCCC(=O)N2CCN(Cc3ccc(Nc4ncc(F)c(-c5cc(F)c6nc(C)n(C(C)C)c6c5)n4)nc3)CC2)n1 , value?
55 to 85%

---

# System: T47D cells
# ASSAY_NOTES: Anti-proliferation (viability) of ER+ breast cancer T47D cells, 6 days (Table 7, FIG. 2B)
# Assay type: cell-based
# PARTICULARS: Homo sapiens, 144 h; T47D cells, 6 days, 10-point serial dilution; read-out: GI IC50 in T47D
pIC50: −log10 of the molar value.
READOUT_LABEL: pIC50

Would you kindly share the measured pIC50 for [2H]C([2H])([2H])Nc1ccc(C(=O)Nc2ccc(N(C)C)nn2)c(NCCCCCNC(=O)CN2CCN(c3ccc(Nc4ncc5c(C)c(C(C)=O)c(=O)n(C6CCCC6)c5n4)nc3)CC2)n1 ?
7.00 to 7.30

GET /values?readout=pIC50&item= CC(=O)c1c(C)c2cnc(Nc3ccc(N4CCN(CC(=O)NCCCCCNc5nc(C)ccc5C(=O)Nc5ccc(N(C)C)nn5)CC4)cn3)nc2n(C2CCCC2)c1=O
≥ 7.30

Give the measured pIC50 of CNc1ccc(C(=O)Nc2ccc3ncn(C)c3n2)c(NCCCCCNC(=O)CN2CCN(c3ccc(Nc4ncc5c(C)c(C(C)=O)c(=O)n(C6CCCC6)c5n4)nc3)CC2)n1 .
7.00 to 7.30
